# tested-system: Glucocorticoid receptor (Homo sapiens) (UniProt P04150)
# Sequence (P04150 whole entry, looked up): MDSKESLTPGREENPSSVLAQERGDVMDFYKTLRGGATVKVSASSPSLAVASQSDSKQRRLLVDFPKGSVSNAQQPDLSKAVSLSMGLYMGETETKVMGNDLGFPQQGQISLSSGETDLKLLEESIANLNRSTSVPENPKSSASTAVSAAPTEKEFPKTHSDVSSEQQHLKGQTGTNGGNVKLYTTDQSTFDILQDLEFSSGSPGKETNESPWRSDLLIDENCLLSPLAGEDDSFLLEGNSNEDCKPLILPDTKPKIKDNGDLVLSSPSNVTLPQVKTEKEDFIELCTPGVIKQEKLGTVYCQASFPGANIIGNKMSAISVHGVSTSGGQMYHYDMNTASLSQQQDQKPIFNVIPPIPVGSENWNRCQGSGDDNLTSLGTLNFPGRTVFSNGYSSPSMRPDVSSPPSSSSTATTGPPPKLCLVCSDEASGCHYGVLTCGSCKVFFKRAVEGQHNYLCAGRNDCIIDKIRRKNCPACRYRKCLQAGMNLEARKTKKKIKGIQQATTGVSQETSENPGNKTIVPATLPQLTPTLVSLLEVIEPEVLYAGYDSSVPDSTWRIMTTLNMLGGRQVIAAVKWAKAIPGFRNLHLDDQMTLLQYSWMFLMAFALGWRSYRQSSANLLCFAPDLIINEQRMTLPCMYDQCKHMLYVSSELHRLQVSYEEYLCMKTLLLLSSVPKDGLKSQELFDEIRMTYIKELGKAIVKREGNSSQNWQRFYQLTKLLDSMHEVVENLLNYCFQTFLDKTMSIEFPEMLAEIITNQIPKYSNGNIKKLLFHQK
# method: GR-GFP Redistribution (AID 450); also: potency is read from the fitted curve at half-maximal effect
# measurement-context: U2OS GR-GFP nuclear translocation, laser cytometry, 2 h
Activity calls are given as the source filed them.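 The calls were made as follows: active = compounds whose dose series gives a full or clear partial fitted curve of increased nuclear translocation; inconclusive = weak partial curve or effect only at the top dose; inactive = no dose-dependent translocation response.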
This section presents compounds with their documented Potency values.

| smiles-entry | Potency |
| --- | --- |
| COc1cccc(-c2cncnc2-n2ccnc2)c1 | > 46 µM (inactive) |

Let us examine a further case.
Query :: Sample CN1CCN(c2ncc3nc(CCc4ccccc4)c(=O)n(Cc4ccc(F)cc4)c3n2)CC1 — what was its Potency?
Result :: > 9.22 µM (inactive)

====

# method: HEK293 18hr Apoptosis Induction qHTS against the NCATS CANVASS Library (AID 1347357); also: potency is read from the fitted curve at half-maximal effect
# measurement-context: HEK293 caspase-3/7 Caspase-Glo luminescence; series mostly up to 46.1 µM
Results filed as inconclusive are left out. Activity calls are given as the source filed them. The call rests on the fitted dose curve; in most records, active means well fitted activation curve with a large enough effect; inconclusive means small, poorly fitted or top-dose-only effect; inactive means flat fitted curve, though single readings scatter.

| molecule | Potency |
| --- | --- |
| C/C=C(/C)c1cc(O)c(C)c2c1Oc1cc(O)cc(C)c1C(=O)O2 | inactive |
| CO[C@H]1[C@@H](OC(=O)/C(C)=C\[C@@H]2O[C@@H]2[C@H]2O[C@H]2C)[C@H](O)[C@H](OCC23C[C@@H]4[C@H](C)CC[C@H]4C4(C=O)CC2C=C(C(C)C)C34C(=O)O)O[C@@H]1C (some centres undefined) | inactive |
| C=C(C)C(=O)O[C@H]1C[C@@]2(C)OC(=CC2=O)/C(C)=C\[C@H]2OC(=O)C(=C)[C@H]12 | 2.96 µM (active) |
| COC(=O)c1cccc2oc(-c3cccc4oc(-c5c(C)cccc5O)nc34)nc12 | inactive |

====

# method: NFAT Signaling Pathway (AID 444);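 also: carbachol stimulus at about its EC50 of 1 µM final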
# measurement-context: Jurkat NFAT-bla M1, carbachol, beta-lactamase ratio, 5 h; at 7.69 µM (top of the series) unless noted
Inconclusive results are not listed. Calls of active or inactive are those of the source. Calls follow the shape of the dose curve; as a rule, active = well fitted curve in either direction with a large enough effect (not every such curve was filed as active); inconclusive = small, poorly fitted or top-dose-only effect, or another doubt; inactive = flat fitted curve, though single readings scatter.
Please reply with one of these outcomes: label 1 for active, label 0 for inactive

| smiles-entry | class |
| --- | --- |
| O=C(c1cccc(F)c1)N1CCC2(CCCN(c3ncccn3)C2)CC1 | label 0 |

Query :: Recorded test call requested for Cc1noc(C)c1-c1cncnc1NCc1cccnc1
Result :: label 0

====

# method: AP1 Signaling Pathway (AID 357);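 also: ME-180 reporter cells stimulated with EGF at its EC50 level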
# measurement-context: ME-180 (cervical carcinoma) AP-1-bla reporter, EGF-induced, beta-lactamase ratio, 5 h; at 7.69 µM (top of the series) unless noted
Results filed as inconclusive are left out. Calls of active or inactive are those of the source. The call rests on the fitted dose curve; in most records, active means well fitted curve in either direction with a large enough effect (not every such curve was filed as active); inconclusive means small, poorly fitted or top-dose-only effect, or another doubt; inactive means flat fitted curve, though single readings scatter.
Respond only with the outcome that fits, drawn from active, inactive

Recorded results for 5 compounds are shown here.
| smiles-entry | class |
| --- | --- |
| O=C(c1ccncc1)N1CCC2(CC1)CN(C(c1ccccc1)c1ccccc1)C2 | inactive |
| Cc1nc2cnc(N3CCN(C)CC3)nc2n(CCC#N)c1=O | inactive |
| COCC(=O)N1CCC2(CCCN(Cc3cc(C(F)(F)F)cc(C(F)(F)F)c3)C2)CC1 | inactive |
| CC(=O)NCCNc1cc(-c2ccccc2CN(C)C)ncn1 | inactive |
| O=C(Nc1cccc(F)c1)N1CC2(CCN(C(=O)c3csnn3)CC2)C1 | inactive |

Query :: Field: outcome | Entry: COc1ccc(-c2nc3cnc(N4CCNCC4)nc3n(CCc3ccccc3)c2=O)cc1
Result :: active

Query :: Test call, this compound: Cc1noc(C)c1-c1ccc2ncnc(N(C)C)c2c1
Result :: inactive

Query :: Given O=C(Nc1cccc(F)c1)N1CCC2(CC1)CCN(C(=O)c1csnn1)CC2 , state the outcome it received in this test.
Result :: inactive

Query :: Lab log entry: CCNc1ncc2nc(CCc3ccccc3)c(=O)n(-c3ccccc3)c2n1 — outcome as called in the assay?
Result :: inactive

Query :: What call does the record list for CC(=O)N1CCC[C@@]2(CCN(c3ccncc3)C2)C1 ?
Result :: inactive

Query :: Assay result, entry CNc1nc(-c2ccccc2Cl)nc2ccccc12 — outcome?
Result :: inactive
